Reported Activity by item:
# System: Rattus norvegicus
# assay_remarks: Decrease in LDL-cholesterol level in Fischer 344 rat plasma at 56 umol/kg, ip after 24 hrs
# Type: functional
# Design: scale not given: the % may be the effect or the level left
The reply should be a number in %, with the unit left off.

CN1CCOC(O)(c2ccc(-c3nc4ccccc4s3)cc2)C1 (stereo not given)    53
CN1CC(O)(c2ccc(-c3nc4ccccc4s3)cc2)OC2CCCCC21 (stereo not given)    24

In: # lookup: Activity of OC1(c2ccc(-c3ccccc3F)cc2)CN2CCCCC2CO1 (stereo not given)
Out: 11

In: I would be grateful if you could share the reported Activity for CN1CC(O)(c2ccc(-c3ccc(F)cc3)cc2)OC2CCCCC21 (stereo not given) .
Out: 33

In: State the recorded Activity for this entry: OC1(c2ccc(-c3ccc(Cl)cc3)cc2)CN2CCCCC2CO1 (stereo not given)
Out: 35

###

Entries annotated with measured Activity
# Tested on: Rattus norvegicus
# assay_remarks: Decrease in total cholesterol level in Fischer 344 rat plasma at 56 umol/kg, ip after 24 hrs
# Format: functional
# Design: scale not given: the % may be the effect or the level left
State the answer as a number, implicitly in %.

Check out these entries, answers already filled in.
CN1CC(O)(c2ccc(-c3cccs3)cc2)OC2CCCCC21 (configuration not stated)    45
OC1(c2ccc(-c3nc4ccccc4s3)cc2)CN2CCCCC2CO1 (configuration not stated)    55
CN1CCOC(O)(c2ccc(-c3ccccc3F)cc2)C1 (configuration not stated)    67

In: State the recorded Activity for this entry: OC1(c2ccc(-c3ccc(Br)s3)cc2)CN2CCCCC2CO1 (configuration not stated)
Out: 36

In: What value of Activity has been reported for the following compound? CN1CCOC(O)(c2ccc(-c3ccc(F)cc3)cc2)C1 (configuration not stated)
Out: 23

In: Find the recorded Activity belonging to CN1CCOC(O)(c2ccc(-c3ccc(Cl)cc3)cc2)C1 (configuration not stated) and report it.
Out: 63

In: Need Activity of CN1CCOC(O)(c2ccc(-c3nc4ccccc4s3)cc2)C1 (configuration not stated) , thanks.
Out: 46

In: Activity lookup needed for OC1(c2ccc(-c3ccccc3F)cc2)CN2CCCCC2CO1 (configuration not stated) , thanks.
Out: 5

In: Any idea what its Activity is? The compound is OC1(c2ccc(-c3ccc(F)cc3)cc2)CN2CCCCC2CO1 (configuration not stated)
Out: 27

###

# target: Squalene synthase (Rattus norvegicus, UniProt Q02769)
# Sequence (Q02769 whole entry): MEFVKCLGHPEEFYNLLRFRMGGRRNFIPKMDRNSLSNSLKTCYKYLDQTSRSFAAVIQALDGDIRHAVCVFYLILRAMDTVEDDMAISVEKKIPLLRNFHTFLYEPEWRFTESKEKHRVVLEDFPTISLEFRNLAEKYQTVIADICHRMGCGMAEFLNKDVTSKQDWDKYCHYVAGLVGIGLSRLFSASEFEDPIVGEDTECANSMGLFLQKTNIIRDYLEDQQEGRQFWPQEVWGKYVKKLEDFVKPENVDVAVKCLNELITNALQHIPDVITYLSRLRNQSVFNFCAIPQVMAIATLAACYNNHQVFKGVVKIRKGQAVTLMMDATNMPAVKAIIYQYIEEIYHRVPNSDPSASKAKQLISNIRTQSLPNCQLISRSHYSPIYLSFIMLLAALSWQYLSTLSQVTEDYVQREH
Parameter log10(IC50): see the listing below.
Use the decimal logarithm of IC50 (µM).

OC1(c2ccc(-c3ccccc3F)cc2)CN2CCCCC2CO1 (centres undefined)    1.00
CN1CC(O)(c2ccc(-c3ccccc3F)cc2)OC2CCCCC21 (centres undefined)    1.62
OC1(c2ccc(-c3nc4ccccc4s3)cc2)CN2CCCCC2CO1 (centres undefined)    0.70

In: Look up log10(IC50) for this compound: CN1CC(O)(c2ccc(-c3ccc(Br)s3)cc2)OC2CCCCC21 (centres undefined)
Out: 0.00

In: Which log10(IC50) value belongs to CN1CC(O)(c2ccc(-c3cccs3)cc2)OC2CCCCC21 (centres undefined) ?
Out: 1.00

In: Item under review: OC1(c2ccc(-c3ccc(F)cc3)cc2)CN2CCCCC2CO1 (centres undefined) . Reported log10(IC50)?
Out: 1.00

In: Given the compound CN1CCOC(O)(c2ccc(-c3ccc(F)cc3)cc2)C1 (centres undefined) , what is its reported log10(IC50)?
Out: 1.36

In: Value lookup for log10(IC50); key = CN1CC(O)(c2ccc(-c3nc4ccccc4s3)cc2)OC2CCCCC21 (centres undefined)
Out: 0.78

In: What value of measured log10(IC50) is listed for CN1CCOC(O)(c2ccc(-c3ccc(Cl)cc3)cc2)C1 (centres undefined) ?
Out: 0.95

In: // query log10(IC50) value for entry CN1CC(O)(c2ccc(-c3ccc(F)cc3)cc2)OC2CCCCC21 (centres undefined)
Out: 1.45

In: For the compound CN1CCOC(O)(c2ccc(-c3ccccc3F)cc2)C1 (centres undefined) , what log10(IC50) is on record?
Out: 1.60

In: Look at this compound and give its reported log10(IC50). OC1(c2ccc(-c3cccs3)cc2)CN2CCCCC2CO1 (centres undefined)
Out: 0.85

In: log10(IC50) lookup needed for CN1CCOC(O)(c2ccc(-c3ccc(Br)cc3)cc2)C1 (centres undefined) , thanks.
Out: 0.78

In: Looking for the measured log10(IC50) of CN1CCOC(O)(c2ccc(-c3cccs3)cc2)C1 (centres undefined) , can you help?
Out: 0.70
